The reported measurements were obtained from ChEMBL document CHEMBL3885861.

Listed below: TP values for each entry.
# Species on record: Rattus norvegicus
# Test protocol: Open TG-GATES - Regimen: Single
# Assay type: toxicity, organism-based, Sprague-Dawley
# Parameters: regimen Single, gender Male, age 6 weeks
# Condition context: in vivo, po, 0 mg/kg, 6 h, tissue Plasma, route gavage, dose level Control
Parameter measured: TP (g/dL)

>>> test_value("CCN(CC)N=O")
5.5
>>> test_value("CC(C)Cc1ccc(C(C)C(=O)O)cc1 (configuration not stated)")
5.4
>>> test_value("O=C(O)COc1nn(Cc2ccccc2)c2ccccc12")
5.2
>>> test_value("CC(=O)N1CCN(c2ccc(OCC3COC(Cn4ccnc4)(c4ccc(Cl)cc4Cl)O3)cc2)CC1 (configuration not stated)")
5.4
>>> test_value("CC[C@@H](CO)NCCN[C@@H](CC)CO")
5.4
>>> test_value("CC(CCc1ccccc1)NCC(O)c1ccc(O)c(C(N)=O)c1 (configuration not stated)")
5.4
>>> test_value("CC(=O)Nc1ccc2c(c1)Cc1ccccc1-2")
5.4

----------
# Species: Rattus norvegicus
# Test protocol: Open TG-GATES - Regimen: Daily Repeat
# Format: toxicity, organism-based, Sprague-Dawley
# Design: regimen Daily Repeat, gender Male, age 6 weeks
# Condition context: in vivo, po, 0 mg/kg, […], tissue Blood, route gavage, dose level Control, time 28 day
Listed below: WBC values for each entry.
Parameter measured: WBC

>>> test_value("CC(=O)Nc1ccc2c(c1)Cc1ccccc1-2")
"122.5 x10_2/uL"
>>> test_value("CC(N)=O [ACETAMIDE]")
"118.1 x10_2/uL"
>>> test_value("CC(CCc1ccccc1)NCC(O)c1ccc(O)c(C(N)=O)c1 (configuration not stated)")
"98.7 x10_2/uL"
>>> test_value("CCN(CC)N=O")
"81 x10_2/uL"
>>> test_value("CC[C@@H](CO)NCCN[C@@H](CC)CO")
"131.5 x10_2/uL"
>>> test_value("CC(=O)N1CCN(c2ccc(OCC3COC(Cn4ccnc4)(c4ccc(Cl)cc4Cl)O3)cc2)CC1 (configuration not stated)")
"126.2 x10_2/uL"
>>> test_value("O=C(O)COc1nn(Cc2ccccc2)c2ccccc12")
"117.2 x10_2/uL"

----------
Listed below: Ca values for each entry.
# Species on record: Rattus norvegicus
# Test protocol: Open TG-GATES - Regimen: Daily Repeat
# Type: toxicity, organism-based, Sprague-Dawley
# Set-up: regimen Daily Repeat, gender Male, age 6 weeks
# Condition context: in vivo, po, 0 mg/kg, […], tissue Plasma, route gavage, dose level Control, time 28 day
Parameter measured: Ca (mg/dL)

>>> test_value("O=C(O)COc1nn(Cc2ccccc2)c2ccccc12")
10
>>> test_value("CC(=O)N1CCN(c2ccc(OCC3COC(Cn4ccnc4)(c4ccc(Cl)cc4Cl)O3)cc2)CC1 (stereo unspecified)")
10.3
>>> test_value("CC(N)=O [ACETAMIDE]")
10.3
>>> test_value("CC[C@@H](CO)NCCN[C@@H](CC)CO")
10.3
>>> test_value("CCN(CC)N=O")
10.3
>>> test_value("CC(=O)Nc1ccc2c(c1)Cc1ccccc1-2")
10.4

----------
# Species on record: Rattus norvegicus
# Test protocol: Open TG-GATES - Regimen: Daily Repeat
# Format: toxicity, organism-based, Sprague-Dawley
# Parameters: regimen Daily Repeat, gender Male, age 6 weeks
# Condition context: in vivo, po, 0 mg/kg, 72 h, tissue Kidney, route gavage, dose level Control, time 3 day
Listed below: KIDNEY_TOTAL values for each entry.
Parameter measured: KIDNEY_TOTAL (g)

>>> test_value("CCN(CC)N=O")
2
>>> test_value("CC[C@@H](CO)NCCN[C@@H](CC)CO")
2.2
>>> test_value("CC(C)Cc1ccc(C(C)C(=O)O)cc1 (stereo not drawn)")
1.9
>>> test_value("CC(CCc1ccccc1)NCC(O)c1ccc(O)c(C(N)=O)c1 (stereo not drawn)")
2.2
>>> test_value("O=C(O)COc1nn(Cc2ccccc2)c2ccccc12")
2
>>> test_value("CC(N)=O [ACETAMIDE]")
2
>>> test_value("CC(=O)Nc1ccc2c(c1)Cc1ccccc1-2")
2.2
>>> test_value("CC(=O)N1CCN(c2ccc(OCC3COC(Cn4ccnc4)(c4ccc(Cl)cc4Cl)O3)cc2)CC1 (stereo not drawn)")
2.1

----------
# Species: Rattus norvegicus
# Test protocol: Open TG-GATES - Regimen: Daily Repeat
# Type: toxicity, organism-based, Sprague-Dawley
# Set-up: regimen Daily Repeat, gender Male, age 6 weeks
# Condition context: in vivo, po, 0 mg/kg, 72 h, tissue Blood, route gavage, dose level Control, time 3 day
Parameter measured: MCV

>>> test_value("CC(=O)N1CCN(c2ccc(OCC3COC(Cn4ccnc4)(c4ccc(Cl)cc4Cl)O3)cc2)CC1 (stereo not given)")
"63.3 fL"
>>> test_value("CC(=O)Nc1ccc2c(c1)Cc1ccccc1-2")
"62.3 fL"
>>> test_value("CC(CCc1ccccc1)NCC(O)c1ccc(O)c(C(N)=O)c1 (stereo not given)")
"62.2 fL"
>>> test_value("CC(N)=O [ACETAMIDE]")
"61.6 fL"
>>> test_value("O=C(O)COc1nn(Cc2ccccc2)c2ccccc12")
"64.4 fL"

----------
# Species: Rattus norvegicus
# Test protocol: Open TG-GATES - Regimen: Daily Repeat
# Format: toxicity, organism-based, Sprague-Dawley
# Design: regimen Daily Repeat, gender Male, age 6 weeks
# Condition context: in vivo, po, 0 mg/kg, […], tissue Plasma, route gavage, dose level Control, time 28 day
Parameter measured: Na (meq/L)

>>> test_value("O=C(O)COc1nn(Cc2ccccc2)c2ccccc12")
140.4
>>> test_value("CCN(CC)N=O")
141
>>> test_value("CC[C@@H](CO)NCCN[C@@H](CC)CO")
142.2

----------
# Species: Rattus norvegicus
# Test protocol: Open TG-GATES - Regimen: Daily Repeat
# Assay type: toxicity, organism-based, Sprague-Dawley
# Design: regimen Daily Repeat, gender Male, age 6 weeks
# Condition context: in vivo, po, 0 mg/kg, […], tissue Blood, route gavage, dose level Control, time 7 day
Parameter measured: RBC (x10_4/ul)

>>> test_value("CC(=O)N1CCN(c2ccc(OCC3COC(Cn4ccnc4)(c4ccc(Cl)cc4Cl)O3)cc2)CC1 (stereo not drawn) [KETOCONAZOLE]")
645.4
>>> test_value("CC(CCc1ccccc1)NCC(O)c1ccc(O)c(C(N)=O)c1 (stereo not drawn) [LABETALOL]")
635.2
>>> test_value("CC(N)=O [ACETAMIDE]")
640.2
>>> test_value("CC(=O)Nc1ccc2c(c1)Cc1ccccc1-2 [2-ACETYLAMINOFLUORENE]")
643
>>> test_value("CC[C@@H](CO)NCCN[C@@H](CC)CO [ETHAMBUTOL]")
671
>>> test_value("CC(C)Cc1ccc(C(C)C(=O)O)cc1 (stereo not drawn) [IBUPROFEN]")
604.6
>>> test_value("CCN(CC)N=O [N-NITROSODIETHYLAMINE]")
634
>>> test_value("O=C(O)COc1nn(Cc2ccccc2)c2ccccc12 [BENDAZAC]")
657

----------
Listed below: Ht values for each entry.
# Organism: Rattus norvegicus
# Test protocol: Open TG-GATES - Regimen: Single
# Format: toxicity, organism-based, Sprague-Dawley
# Parameters: regimen Single, gender Male, age 6 weeks
# Condition context: in vivo, po, 0 mg/kg, 6 h, tissue Blood, route gavage, dose level Control
Parameter measured: Ht (%)

>>> test_value("CC[C@@H](CO)NCCN[C@@H](CC)CO [ETHAMBUTOL]")
39.9
>>> test_value("CC(=O)N1CCN(c2ccc(OCC3COC(Cn4ccnc4)(c4ccc(Cl)cc4Cl)O3)cc2)CC1 (configuration not stated) [KETOCONAZOLE]")
39.7
>>> test_value("O=C(O)COc1nn(Cc2ccccc2)c2ccccc12 [BENDAZAC]")
41.5
>>> test_value("CC(=O)Nc1ccc2c(c1)Cc1ccccc1-2 [2-ACETYLAMINOFLUORENE]")
40.9
>>> test_value("CCN(CC)N=O [N-NITROSODIETHYLAMINE]")
39.5
>>> test_value("CC(CCc1ccccc1)NCC(O)c1ccc(O)c(C(N)=O)c1 (configuration not stated) [LABETALOL]")
39
>>> test_value("CC(C)Cc1ccc(C(C)C(=O)O)cc1 (configuration not stated) [IBUPROFEN]")
40

----------
# Species on record: Rattus norvegicus
# Test protocol: Open TG-GATES - Regimen: Single
# Assay type: toxicity, organism-based, Sprague-Dawley
# Parameters: regimen Single, gender Male, age 6 weeks
# Condition context: in vivo, po, 0 mg/kg, 24 h, tissue Kidney, route gavage, dose level Control
Listed below: KIDNEY_L values for each entry.
Parameter measured: KIDNEY_L (g)

>>> test_value("CC(C)Cc1ccc(C(C)C(=O)O)cc1 (configuration not stated)")
0.9
>>> test_value("CCN(CC)N=O")
1.1
>>> test_value("CC(=O)N1CCN(c2ccc(OCC3COC(Cn4ccnc4)(c4ccc(Cl)cc4Cl)O3)cc2)CC1 (configuration not stated)")
1
>>> test_value("CC[C@@H](CO)NCCN[C@@H](CC)CO")
1
>>> test_value("CC(CCc1ccccc1)NCC(O)c1ccc(O)c(C(N)=O)c1 (configuration not stated)")
0.9
>>> test_value("O=C(O)COc1nn(Cc2ccccc2)c2ccccc12")
1
>>> test_value("CC(=O)Nc1ccc2c(c1)Cc1ccccc1-2")
1.1
